Provenance of the data: ChEMBL document CHEMBL3351819

system: Plasmodium falciparum; assay: Resistance index, ratio of IC50 for chloroquine-resistant Plasmodium falciparum W2 to IC50 for chloroquine-sensitive Plasmodium falciparum D10; type: functional
measurement_label: Ratio IC50
# respond with the number and nothing more

Lookup: Give the value of Ratio IC50 reported for the following: Clc1ccc(Nc2cc3nc4ccccc4n(-c4ccc(Cl)cc4)c-3c/c2=N/C[C@@H]2CCCN3CCCC[C@H]23)cc1
Found: 2.1

Lookup: Please give measured Ratio IC50 of the following entry: Cl.c1ccc(Nc2cc3nc4ccccc4n(-c4ccccc4)c-3c/c2=N/CCCCCCC23CCCCN2CCCC3)cc1
Found: 1.2

Lookup: Find the measured Ratio IC50 of Cl.Clc1ccc(Nc2cc3nc4ccccc4n(-c4ccc(Cl)cc4)c-3c/c2=N/CC23CCCN2CCC3)cc1 and report it.
Found: 1.2

Lookup: Output Ratio IC50 of C[N+]12CCCCC1(CCCC/N=c1/cc3n(-c4ccccc4)c4ccccc4nc-3cc1Nc1ccccc1)CCCC2.[I-] (stereo unspecified)
Found: 1.4

Lookup: Give the value of Ratio IC50 reported for the following: Cl.Fc1ccc(Nc2cc3nc4ccccc4n(-c4ccc(F)c(Cl)c4)c-3c/c2=N/CCCCCCC23CCCCN2CCCC3)cc1Cl
Found: 1.9

Lookup: Quick one: give measured Ratio IC50 for Cl.c1ccc(-n2c3c/c(=N/CCCCC45CCCCN4CCCC5)c(Nc4cccnc4)cc-3nc3ccccc32)cc1
Found: 0.8

---

experiment: Selectivity index, ratio of IC50 for HMEC1 to IC50 for chloroquine-sensitive Plasmodium falciparum D10
Exercise: for every item that follows, state its recorded Ratio IC50.
Quick one: just the number, no unit, thanks!

Lookup: Provide Ratio IC50 value for the following compound: C[N+]12CCCCC1(CCCC/N=c1/cc3n(-c4ccccc4)c4ccccc4nc-3cc1Nc1ccccc1)CCCC2.[I-] (stereo not given)
Found: 58.2

Lookup: State its Ratio IC50: Cl.c1ccc(-n2c3c/c(=N/CCCCC45CCCCN4CCCC5)c(Nc4cccnc4)cc-3nc3ccccc32)cc1
Found: 13.9

Lookup: Item Cl.c1ccc(Nc2cc3nc4ccccc4n(-c4ccccc4)c-3c/c2=N/CCCCCCC23CCCCN2CCCC3)cc1 : provide Ratio IC50
Found: 7.3

Lookup: Please list Ratio IC50 recorded for the compound COc1ccc(Nc2cc3nc4ccccc4n(-c4ccccc4)c-3c/c2=N/CCCCC23CCCCN2CCCC3)cn1.Cl
Found: 7.8

Lookup: Could you please provide reported Ratio IC50 for Cl.Fc1ccc(Nc2cc3nc4ccccc4n(-c4ccc(F)c(Cl)c4)c-3c/c2=N/CCCCCCC23CCCCN2CCCC3)cc1Cl ? Thanks!
Found: 4.4

Lookup: Note Ratio IC50 for the compound shown: Cl.Clc1ccc(-n2c3c/c(=N/CCCCC45CCCCN4CCCC5)c(Nc4cccnc4)cc-3nc3ccccc32)cc1
Found: 10.6

Lookup: Query Ratio IC50 for Cl.c1ccc(Nc2cc3nc4ccccc4n(-c4ccccc4)c-3c/c2=N/CCC23CCCN2CCC3)cc1
Found: 5.5

Lookup: Supply reported Ratio IC50 belonging to this compound: CN(C)CCC/N=c1/cc2n(-c3ccc(Cl)cc3)c3ccccc3nc-2cc1Nc1cccnc1
Found: 11.7

Lookup: Tell me its Ratio IC50 given CC(C)/N=c1\cc2n(-c3ccc(Cl)cc3)c3ccccc3nc-2cc1Nc1ccc(Cl)cc1 [CLOFAZIMINE] as the entry.
Found: 3.9

Lookup: Given Cl.c1ccc(Nc2cc3nc4ccccc4n(-c4ccccc4)c-3c/c2=N/CCN2CCCC2)cc1 , respond with its Ratio IC50.
Found: 7.7

---

assay: Selectivity index, ratio of IC50 for HMEC1 to IC50 for Leishmania tropica MHOM/IT/2012/ISS3130
Use True when the recorded Ratio IC50 is no lower than 6; use False when it is lower.

Lookup: Could you tell me if the measured Ratio IC50 of Cc1ccc(Nc2cc3nc4ccccc4n(-c4ccc(C)cc4)c-3c/c2=N/C[C@@H]2CCCN3CCCC[C@H]23)cc1.Cl reaches 6 or more?
Found: False

Lookup: Could you verify whether the entry Cl.Clc1ccc(Nc2cc3nc4ccccc4n(-c4ccc(Cl)cc4)c-3c/c2=N/CC23CCCN2CCC3)cc1 shows Ratio IC50 of no less than 6?
Found: False

Lookup: Is reported Ratio IC50 greater than or equal to 6 here: Cl.Clc1ccc(-n2c3c/c(=N/CCCCC45CCCCN4CCCC5)c(Nc4cccnc4)cc-3nc3ccccc32)cc1
Found: True

Lookup: Quick check, Ratio IC50 >= 6? Cl.c1ccc(-n2c3c/c(=N/CCCCC45CCCCN4CCCC5)c(Nc4cccnc4)cc-3nc3ccccc32)cc1
Found: False

Lookup: Quick check, Ratio IC50 >= 6? Cl.c1ccc(Nc2cc3nc4ccccc4n(-c4ccccc4)c-3c/c2=N/CCN2CCCC2)cc1
Found: False

Lookup: Is reported Ratio IC50 greater than or equal to 6 here: Cl.Fc1ccc(Nc2cc3nc4ccccc4n(-c4ccc(F)cc4)c-3c/c2=N/CCCCC23CCCCN2CCCC3)cc1
Found: False

Lookup: I'd appreciate it if you could say whether Cl.Clc1ccc(Nc2cc3nc4ccccc4n(-c4ccc(Cl)cc4)c-3c/c2=N/CCC23CCCN2CCC3)cc1 has Ratio IC50 at least equal to 6.
Found: False

Lookup: Dear colleague, could you confirm whether Cl.c1ccc(Nc2cc3nc4ccccc4n(-c4ccccc4)c-3c/c2=N/CCC23CCCN2CCC3)cc1 has Ratio IC50 at or above 6?
Found: False

Lookup: # check: Ratio IC50 of Cl.c1ccc(Nc2cc3nc4ccccc4n(-c4ccccc4)c-3c/c2=N/CCCCCCC23CCCCN2CCCC3)cc1 is greater than or equal to 6
Found: True

Lookup: API: above_or_equal(metric=Ratio IC50, cutoff=6) for item C[C@@H]1[C@H](O)[C@@H](C)/C=C/C=C/C=C/C=C/C=C/C=C/C=C/[C@H](O[C@@H]2O[C@H](C)[C@@H](O)[C@H](N)[C@@H]2O)C[C@@H]2O[C@](O)(C[C@@H](O)C[C@@H](O)[C@H](O)CC[C@@H](O)C[C@@H](O)CC(=O)O[C@H]1C)C[C@H](O)[C@H]2C(=O)O
Found: True

Lookup: State whether the measured Ratio IC50 reaches 6, counting equality as reaching it, for Cl.Fc1ccc(Nc2cc3nc4ccccc4n(-c4ccc(F)c(Cl)c4)c-3c/c2=N/CCCCCCC23CCCCN2CCCC3)cc1Cl
Found: False

Lookup: Could you tell me if the measured Ratio IC50 of COc1ccc(Nc2cc3nc4ccccc4n(-c4ccccc4)c-3c/c2=N/CCCCC23CCCCN2CCCC3)cn1.Cl reaches 6 or more?
Found: False

Lookup: Exam item: decide whether the reported Ratio IC50 for Cl.Fc1ccc(Nc2cc3nc4ccccc4n(-c4ccc(F)cc4)c-3c/c2=N/CCCCCCC23CCCCN2CCCC3)cc1 is at least 6.
Found: False

Lookup: Could you please find out whether Cl.c1ccc(Nc2cc3nc4ccccc4n(-c4ccccc4)c-3c/c2=N/CC23CCCN2CCC3)cc1 has Ratio IC50 that meets 6 or exceeds it?
Found: False

---

test: Selectivity index, ratio of IC50 for HMEC1 to IC50 for chloroquine-resistant Plasmodium falciparum W2
measurement_label: Ratio IC50
No unit in the answer, only the number.

Lookup: Give a short answer stating reported Ratio IC50 for Cl.c1ccc(Nc2cc3nc4ccccc4n(-c4ccccc4)c-3c/c2=N/CCCCCCC23CCCCN2CCCC3)cc1 .
Found: 5.9

Lookup: Supply reported Ratio IC50 belonging to this compound: C[N+]12CCCCC1(CCCC/N=c1/cc3n(-c4ccccc4)c4ccccc4nc-3cc1Nc1ccccc1)CCCC2.[I-] (stereo not drawn)
Found: 41

Lookup: Output Ratio IC50 of Cc1ccc(Nc2cc3nc4ccccc4n(-c4ccc(C)cc4)c-3c/c2=N/C[C@@H]2CCCN3CCCC[C@H]23)cc1.Cl
Found: 3.9

Lookup: Check the records and state Ratio IC50 for Cl.c1ccc(Nc2cc3nc4ccccc4n(-c4ccccc4)c-3c/c2=N/CCC23CCCN2CCC3)cc1
Found: 6.5

Lookup: For the compound Cl.c1ccc(Nc2cc3nc4ccccc4n(-c4ccccc4)c-3c/c2=N/CC23CCCN2CCC3)cc1 , report Ratio IC50.
Found: 6

Lookup: Retrieve Ratio IC50 measured for CN(C)CCC/N=c1/cc2n(-c3ccc(Cl)cc3)c3ccccc3nc-2cc1Nc1cccnc1 and print it.
Found: 16.6

Lookup: Tell me its Ratio IC50 given Cl.Fc1ccc(Nc2cc3nc4ccccc4n(-c4ccc(F)cc4)c-3c/c2=N/CCCCC23CCCCN2CCCC3)cc1 as the entry.
Found: 5

Lookup: Return the recorded Ratio IC50 value; entry: COc1ccc(Nc2cc3nc4ccccc4n(-c4ccccc4)c-3c/c2=N/CCCCC23CCCCN2CCCC3)cn1.Cl
Found: 18.1

Lookup: Specify reported Ratio IC50 for the compound shown: Cl.Fc1ccc(Nc2cc3nc4ccccc4n(-c4ccc(F)cc4)c-3c/c2=N/CCCCCCC23CCCCN2CCCC3)cc1
Found: 5.5

Lookup: Write down Ratio IC50 measured for item Cl.Clc1ccc(Nc2cc3nc4ccccc4n(-c4ccc(Cl)cc4)c-3c/c2=N/CC23CCCN2CCC3)cc1
Found: 4.8

Lookup: Please supply the value of reported Ratio IC50 for the item Cl.c1ccc(-n2c3c/c(=N/CCCCC45CCCCN4CCCC5)c(Nc4cccnc4)cc-3nc3ccccc32)cc1
Found: 18.5

Lookup: Write down Ratio IC50 measured for item Cl.Clc1ccc(-n2c3c/c(=N/CCCCC45CCCCN4CCCC5)c(Nc4cccnc4)cc-3nc3ccccc32)cc1
Found: 12.9

Lookup: State its Ratio IC50 for this compound: c1ccc(Nc2cc3nc4ccccc4n(-c4ccccc4)c-3c/c2=N/CCC[C@@H]2CCCN3CCCC[C@H]23)cc1
Found: 71.4

Lookup: Identify the reported Ratio IC50 for the following entry. Cl.Fc1ccc(Nc2cc3nc4ccccc4n(-c4ccc(F)c(Cl)c4)c-3c/c2=N/CCCCCCC23CCCCN2CCCC3)cc1Cl
Found: 2.4

Lookup: Note Ratio IC50 for the compound shown: CC(C)/N=c1\cc2n(-c3ccc(Cl)cc3)c3ccccc3nc-2cc1Nc1ccc(Cl)cc1
Found: 2.6

Lookup: Using the record for Cl.Clc1ccc(Nc2cc3nc4ccccc4n(-c4ccc(Cl)cc4)c-3c/c2=N/CCC23CCCN2CCC3)cc1 , state its measured Ratio IC50.
Found: 2.2

Lookup: Consider the compound Cl.c1ccc(Nc2cc3nc4ccccc4n(-c4ccccc4)c-3c/c2=N/CCN2CCCC2)cc1 . State its measured Ratio IC50.
Found: 12.6

Lookup: Indicate the recorded Ratio IC50 value for this compound: Cl.c1ccc(Nc2cc3nc4ccccc4n(-c4ccccc4)c-3c/c2=N/CCCCC23CCCCN2CCCC3)cc1
Found: 4.5
